# System Tested: Delta-type opioid receptor (Homo sapiens)
# Sequence (P41143 whole entry): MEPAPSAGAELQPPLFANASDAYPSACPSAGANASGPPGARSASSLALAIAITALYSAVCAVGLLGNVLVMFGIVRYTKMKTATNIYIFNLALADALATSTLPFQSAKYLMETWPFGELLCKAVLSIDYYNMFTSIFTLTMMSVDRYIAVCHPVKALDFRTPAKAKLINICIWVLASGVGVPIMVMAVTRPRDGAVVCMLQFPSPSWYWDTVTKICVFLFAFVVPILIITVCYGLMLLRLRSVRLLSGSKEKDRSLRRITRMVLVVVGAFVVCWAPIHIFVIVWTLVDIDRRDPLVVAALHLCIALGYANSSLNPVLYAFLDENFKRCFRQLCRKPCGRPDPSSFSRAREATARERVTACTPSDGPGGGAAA
# Assay Method Text: Displacement of [3H]-DADLE from recombinant human delta-opioid receptor expressed in HEK293 cells
Value Type: pKi
Remember the convention: pKi equals -log10 of concentration in molar.

Look up pKi with Delta-type opioid receptor (Homo sapiens) for this compound: `N#Cc1ccc(NC(=O)C2=C(O)[C@@H]3Oc4c(O)ccc5c4[C@@]34CCN(CC3CC3)[C@H](C5)[C@]4(O)C2)cc1` 7.95

Look up pKi with Delta-type opioid receptor (Homo sapiens) for this compound: `COC(=O)C(C)(C)NC(=O)C1=C(O)[C@@H]2Oc3c(O)ccc4c3[C@@]23CCN(CC2CC2)[C@H](C4)[C@]3(O)C1` 8.40

Look up pKi with Delta-type opioid receptor (Homo sapiens) for this compound: `Cc1nc(N)nc2c1C[C@@]1(O)[C@H]3Cc4ccc(O)c5c4[C@@]1(CCN3CC1CC1)[C@H]2O5` 8.68

Look up pKi with Delta-type opioid receptor (Homo sapiens) for this compound: `Cc1noc(C(C)(C)NC(=O)C2=C(O)[C@@H]3Oc4c(O)ccc5c4[C@@]34CCN(CC3CC3)[C@H](C5)[C@]4(O)C2)n1` 8.24

Look up pKi with Delta-type opioid receptor (Homo sapiens) for this compound: `CC(=O)C1=C(O)[C@@H]2Oc3c(O)ccc4c3[C@@]23CCN(CC2CC2)[C@H](C4)[C@]3(O)C1` 7.51

Look up pKi with Delta-type opioid receptor (Homo sapiens) for this compound: CC(C)(NC(=O)C1=C(O)[C@@H]2Oc3c(O)ccc4c3[C@@]23CCN(CC2CC2)[C@H](C4)[C@]3(O)C1)c1nc(-c2ccccc2)no1 [NALDEMEDINE] 9.04

###

# Assay Method Text: Stability in human microsomes assessed as parent compound remaining at 0.5 uM measured after 0.5 hrs
# Format: ADME, Microsome
# Conditions Used: read-out: Stability
Value Type: remaining at 0.5 h, 0.5 µM
Answers without a unit are incomplete; give the number and then its unit.

Example entries begin here.
Any idea what remaining at 0.5 h, 0.5 µM was measured for `O=C(Nc1ccccc1)C1=C(O)[C@@H]2Oc3c(O)ccc4c3[C@@]23CCN(CC2CC2)[C@H](C4)[C@]3(O)C1` ? 89%

Any idea what remaining at 0.5 h, 0.5 µM was measured for `O=C(O)c1ccc2c3c([nH]c2c1Cl)[C@@H]1Oc2c(O)ccc4c2[C@@]12CCN(CC1CC1)[C@H](C4)[C@]2(O)C3` ? 97%

Any idea what remaining at 0.5 h, 0.5 µM was measured for `Cc1nc(N)nc2c1C[C@@]1(O)[C@H]3Cc4ccc(O)c5c4[C@@]1(CCN3CC1CC1)[C@H]2O5` ? 92%

Continuing:
Any idea what remaining at 0.5 h, 0.5 µM was measured for `O=C(Nc1ccc2cc[nH]c2c1)C1=C(O)[C@@H]2Oc3c(O)ccc4c3[C@@]23CCN(CC2CC2)[C@H](C4)[C@]3(O)C1` ? 93%

###

Entries and their measured log10 Ke follow.
# System Tested: Delta-type opioid receptor (Homo sapiens)
# Assay Method Text: Antagonist activity at delta-opioid receptor (unknown origin) by [35S]-GTPgammaS binding assay
# Assay type: functional
Please interpret these as log10 of Ke where Ke is in nM.

Any idea what log10 Ke was measured for `COC(=O)C1(NC(=O)C2=C(O)[C@@H]3Oc4c(O)ccc5c4[C@@]34CCN(CC3CC3)[C@H](C5)[C@]4(O)C2)CC1` ? 0.88

Any idea what log10 Ke was measured for `CC(C)NC(=O)C1=C(O)[C@@H]2Oc3c(O)ccc4c3[C@@]23CCN(CC2CC2)[C@H](C4)[C@]3(O)C1` ? 0.58

Any idea what log10 Ke was measured for CC(C)(NC(=O)C1=C(O)[C@@H]2Oc3c(O)ccc4c3[C@@]23CCN(CC2CC2)[C@H](C4)[C@]3(O)C1)c1nc(-c2ccccc2)no1 [NALDEMEDINE] ? -0.43

Continuing:
Any idea what log10 Ke was measured for `O=C(Nc1ccccc1)C1=C(O)[C@@H]2Oc3c(O)ccc4c3[C@@]23CCN(CC2CC2)[C@H](C4)[C@]3(O)C1` ? 0.56

Any idea what log10 Ke was measured for C[N@+]1(CC2CC2)CC[C@]23c4c5ccc(O)c4O[C@H]2C(=O)CC[C@@]3(O)[C@H]1C5.[Br-] [METHYLNALTREXONE BROMIDE] ? 3.03
